system: Rattus norvegicus; experiment: Mean excretion of chloride in conscious rats at a dose of 3.0 mg/kg given orally; format: ADME, organism-based; parameters: dose 3 mg/kg, route oral; settings: in vivo, po
Class true: Mean excretion of Cl- at least 0.8 m equiv. Class false: Mean excretion of Cl- below 0.8 m equiv.

[[record]]
molecule = "CN(C)CC(c1ccccc1Cl)c1nnc2n1-c1ccc(Cl)cc1C(c1ccccc1)=NC2 (centres undefined)"
category_label = "true"


Exam item: Does the reported Mean excretion of Cl- for CN(C)CC(c1ccccc1)c1nnc2n1-c1ccc(Cl)cc1C(c1ccccc1)=NC2 (centres undefined) fall at or above the 0.8 m equiv mark?
Marked response: true

Exam item: Item NS(=O)(=O)c1cc2c(cc1Cl)NCNS2(=O)=O [HYDROCHLOROTHIAZIDE] with Mean excretion of Cl- of 0.8 m equiv or above?
Marked response: true

Exam item: Decide: Mean excretion of Cl- of CSc1ccc2c(c1)C(c1ccccc1)=NCc1nnc(C(CN(C)C)c3ccccc3)n1-2 (centres undefined) >= 0.8 m equiv?
Marked response: true

Exam item: Given Nc1nc(N)c2nc(-c3ccccc3)c(N)nc2n1 , state whether its Mean excretion of Cl- is at least 0.8 m equiv.
Marked response: false

====

organism: Rattus norvegicus; test: […]; format: ADME, organism-based, Urine; design: dose 0.3 mg/kg, route oral; settings: in vivo, po, 0.3 mg/kg
Recorded Endpoint: Mean urine volume (mL)
Give just the numeric value; mL need not be written.

Below are worked cases with known answers.
[[record]]
compound = "CN(C)CC(c1ccccc1Cl)c1nnc2n1-c1ccc(Cl)cc1C(c1ccccc1)=NC2 (stereo not drawn)"
data_value = 5.36

[[record]]
compound = "CC1N=C(c2ccccc2)c2cc(Cl)ccc2-n2c1nnc2C(CN(C)C)c1ccccc1 (stereo not drawn)"
data_value = 3.97

[[record]]
compound = "CN(C)CCc1nnc2n1-c1ccc(Br)cc1C(c1ccccc1)=NC2"
data_value = 3.99

[[record]]
compound = "COc1cccc(C(CN(C)C)c2nnc3n2-c2ccc(Cl)cc2C(c2ccccc2)=NC3)c1 (stereo not drawn)"
data_value = 3.37

[[record]]
compound = "CN(C)CC(c1ccccc1)c1nnc2n1-c1ccc(Cl)cc1C(c1ccccc1)=NC2 (stereo not drawn)"
data_value = 4.15

[[record]]
compound = "CN(C)CCc1nnc2n1-c1ccc(Br)cc1C(c1ccccn1)=NC2"
data_value = 5.94


Exam item: Please report the recorded Mean urine volume for Nc1nc(N)c2nc(-c3ccccc3)c(N)nc2n1 .
Marked response: 2.22

Exam item: Any idea what its Mean urine volume is? The compound is COc1ccccc1C(CN(C)C)c1nnc2n1-c1ccc(Cl)cc1C(c1ccccc1)=NC2 (stereo not drawn)
Marked response: 4.8

Exam item: Any idea what its Mean urine volume is? The compound is CN(C)CC(c1ccccc1)c1nnc2n1-c1ccc(Br)cc1C(c1ccccc1)=NC2 (stereo not drawn)
Marked response: 4.29

Exam item: Given the entry I.NCC(c1ccccc1)c1nnc2n1-c1ccc(Cl)cc1C(c1ccccc1)=NC2 (stereo not drawn) , report its measured Mean urine volume.
Marked response: 4.34

Exam item: What does the record list as Mean urine volume for CN(C)CC(c1ccccc1)c1nnc2n1-c1ccc(I)cc1C(c1ccccc1)=NC2 (stereo not drawn) ?
Marked response: 5.09

Exam item: What value of measured Mean urine volume is listed for CSc1ccc2c(c1)C(c1ccccc1)=NCc1nnc(C(CN(C)C)c3ccccc3)n1-2 (stereo not drawn) ?
Marked response: 3.92

Exam item: Which Mean urine volume value is on record for COc1ccc(C(CN(C)C)c2nnc3n2-c2ccc(Cl)cc2C(c2ccccc2)=NC3)cc1 (stereo not drawn) ?
Marked response: 4.13

====

organism: Rattus norvegicus; experiment: […]; assay type: ADME, organism-based, Urine; set-up: dose 1 mg/kg, route oral; settings: in vivo, po, 1 mg/kg
Recorded Endpoint: Mean urine volume

Below, each entry is followed by its recorded Mean urine volume result.
[[record]]
molecule = "Nc1nc(N)c2nc(-c3ccccc3)c(N)nc2n1"
recorded_endpoint = "Mean urine volume"
data_value = "3.5 mL"

[[record]]
molecule = "COc1cccc(C(CN(C)C)c2nnc3n2-c2ccc(Cl)cc2C(c2ccccc2)=NC3)c1 (stereo not given)"
recorded_endpoint = "Mean urine volume"
data_value = "3.74 mL"

[[record]]
molecule = "CN(C)CCc1nnc2n1-c1ccc(Br)cc1C(c1ccccn1)=NC2"
recorded_endpoint = "Mean urine volume"
data_value = "4.69 mL"


Exam item: What value of Mean urine volume has been reported for the following molecule? CN(C)CC(c1ccccc1)c1nnc2n1-c1ccc(Br)cc1C(c1ccccc1)=NC2 (stereo not given)
Marked response: 3.59 mL

Exam item: # Mean urine volume lookup, item COc1ccc(C(CN(C)C)c2nnc3n2-c2ccc(Cl)cc2C(c2ccccc2)=NC3)cc1 (stereo not given)
Marked response: 4.81 mL

Exam item: Which Mean urine volume is reported for this molecule? CC1N=C(c2ccccc2)c2cc(Cl)ccc2-n2c1nnc2C(CN(C)C)c1ccccc1 (stereo not given)
Marked response: 4.39 mL

Exam item: Fill in the blank: the reported Mean urine volume of I.NCC(c1ccccc1)c1nnc2n1-c1ccc(Cl)cc1C(c1ccccc1)=NC2 (stereo not given) is ____.
Marked response: 4.45 mL

Exam item: Would you kindly share the measured Mean urine volume for COc1ccccc1C(CN(C)C)c1nnc2n1-c1ccc(Cl)cc1C(c1ccccc1)=NC2 (stereo not given) ?
Marked response: 5.08 mL

Exam item: Look up Mean urine volume for this molecule: CN(C)CC(c1ccccc1Cl)c1nnc2n1-c1ccc(Cl)cc1C(c1ccccc1)=NC2 (stereo not given)
Marked response: 4.54 mL

Exam item: # lookup: Mean urine volume of CN(C)CC(c1ccccc1)c1nnc2n1-c1ccc(Cl)cc1C(c1ccccc1)=NC2 (stereo not given)
Marked response: 4.47 mL

====

species: Rattus norvegicus; test: […]; type: ADME, organism-based, Urine; set-up: dose 10 mg/kg, route oral; details: in vivo, po, 10 mg/kg
Please use rule met whenever Mean urine volume is not below 6 mL, and rule not met whenever it is.

[[record]]
compound = "I.NCC(c1ccccc1)c1nnc2n1-c1ccc(Cl)cc1C(c1ccccc1)=NC2 (stereo not given)"
category_label = "rule met"

[[record]]
compound = "COc1ccc(C(CN(C)C)c2nnc3n2-c2ccc(Cl)cc2C(c2ccccc2)=NC3)cc1 (stereo not given)"
category_label = "rule not met"

[[record]]
compound = "CN(C)CCc1nnc2n1-c1ccc(Br)cc1C(c1ccccn1)=NC2"
category_label = "rule not met"

[[record]]
compound = "CN(C)CC(c1ccccc1)c1nnc2n1-c1ccc(Br)cc1C(c1ccccc1)=NC2 (stereo not given)"
category_label = "rule not met"

[[record]]
compound = "NS(=O)(=O)c1cc2c(cc1Cl)NCNS2(=O)=O [HYDROCHLOROTHIAZIDE]"
category_label = "rule met"

[[record]]
compound = "NS(=O)(=O)c1cc(C(=O)O)c(NCc2ccco2)cc1Cl [FUROSEMIDE]"
category_label = "rule met"


Exam item: Textbook exercise: given the entry CSc1ccc2c(c1)C(c1ccccc1)=NCc1nnc(C(CN(C)C)c3ccccc3)n1-2 (stereo not given) , state whether its Mean urine volume is greater than or equal to 6 mL.
Marked response: rule met

Exam item: Determine whether measured Mean urine volume meets or exceeds 6 mL for Nc1nc(N)c2nc(-c3ccccc3)c(N)nc2n1
Marked response: rule met

Exam item: Kindly determine if Mean urine volume recorded for CN(C)CC(c1ccccc1)c1nnc2n1-c1ccc(Cl)cc1C(c1ccccc1)=NC2 (stereo not given) is above or exactly 6 mL.
Marked response: rule met

====

test system: Rattus norvegicus; assay: Mean excretion of sodium in conscious rats at a dose of 30 mg/kg given orally; assay type: ADME, organism-based; parameters: dose 30 mg/kg, route oral; conditions: in vivo, po
Entries and their Mean excretion of Na+ values follow.
Please state the figure in m equiv; there is no need to write the unit.

Take a look at these entries with their results.
[[record]]
compound = "COc1ccccc1C(CN(C)C)c1nnc2n1-c1ccc(Cl)cc1C(c1ccccc1)=NC2 (stereo not given)"
recorded_endpoint = "Mean excretion of Na+"
data_value = 0.61

[[record]]
compound = "I.NCC(c1ccccc1)c1nnc2n1-c1ccc(Cl)cc1C(c1ccccc1)=NC2 (stereo not given)"
recorded_endpoint = "Mean excretion of Na+"
data_value = 2.01

[[record]]
compound = "CN(C)CC(c1ccccc1)c1nnc2n1-c1ccc(I)cc1C(c1ccccc1)=NC2 (stereo not given)"
recorded_endpoint = "Mean excretion of Na+"
data_value = 1.98

[[record]]
compound = "COc1ccc(C(CN(C)C)c2nnc3n2-c2ccc(Cl)cc2C(c2ccccc2)=NC3)cc1 (stereo not given)"
recorded_endpoint = "Mean excretion of Na+"
data_value = 1.58


Exam item: Give its Mean excretion of Na+ value. Item: CN(C)CC(c1ccccc1)c1nnc2n1-c1ccc(Cl)cc1C(c1ccccc1)=NC2 (stereo not given)
Marked response: 1.8

====

test system: Rattus norvegicus; experiment: Mean excretion of sodium in conscious rats at a dose of 0.3 mg/kg given orally; assay type: ADME, organism-based; parameters: dose 0.3 mg/kg, route oral; conditions: in vivo, po
Classify: y when Mean excretion of Na+ is strictly less than 0.7 m equiv; n when Mean excretion of Na+ is not.

# example entries with known answers
[[record]]
compound = "CN(C)CC(c1ccccc1)c1nnc2n1-c1ccc(Cl)cc1C(c1ccccc1)=NC2 (stereo not given)"
category_label = "n"

[[record]]
compound = "CN(C)CC(c1ccccc1)c1nnc2n1-c1ccc(I)cc1C(c1ccccc1)=NC2 (stereo not given)"
category_label = "n"

[[record]]
compound = "COc1cccc(C(CN(C)C)c2nnc3n2-c2ccc(Cl)cc2C(c2ccccc2)=NC3)c1 (stereo not given)"
category_label = "y"


Exam item: For this compound, is Mean excretion of Na+ lower than 0.7 m equiv? CN(C)CC(c1ccccc1)c1nnc2n1-c1ccc(Br)cc1C(c1ccccc1)=NC2 (stereo not given)
Marked response: y

Exam item: Dear colleague, could you confirm whether Mean excretion of Na+ of NS(=O)(=O)c1cc2c(cc1Cl)NCNS2(=O)=O [HYDROCHLOROTHIAZIDE] falls below 0.7 m equiv? Thanks.
Marked response: n

Data credit: ChEMBL document CHEMBL1124476
